molecular target: dopamine 2 (D2) receptor (Rattus norvegicus, UniProt P61169); construct: A synaptosome fraction was separated from corpus striatum; test: Affinity for dopamine 2 receptor (tritiated spiperone binding); settings: rat corpus striatum synaptosomes; [3H]spiperone 0.2 nM; 37° C., 20 min
Sequence (P61169 whole entry): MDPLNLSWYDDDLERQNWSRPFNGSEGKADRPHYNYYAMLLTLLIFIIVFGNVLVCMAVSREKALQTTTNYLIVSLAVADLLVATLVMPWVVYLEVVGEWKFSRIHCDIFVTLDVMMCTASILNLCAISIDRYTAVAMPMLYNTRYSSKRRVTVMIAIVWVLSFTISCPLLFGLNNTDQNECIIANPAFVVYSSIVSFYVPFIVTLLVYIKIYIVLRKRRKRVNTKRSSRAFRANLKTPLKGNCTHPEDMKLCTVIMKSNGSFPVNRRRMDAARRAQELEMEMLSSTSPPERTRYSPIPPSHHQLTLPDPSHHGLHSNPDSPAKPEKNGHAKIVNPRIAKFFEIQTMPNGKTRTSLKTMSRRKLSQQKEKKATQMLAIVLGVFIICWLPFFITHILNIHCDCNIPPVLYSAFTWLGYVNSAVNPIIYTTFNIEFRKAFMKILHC
Readout kind: log10 of Ki (log10 of the value in nM)
Form field - Quantity: Ki; Unit: nM; Scale: log10

smiles_entry=Cc1sc2c(c1CCN1CCC(c3noc4cc(F)ccc34)CC1)NC(=O)CCC2 readout_kind="log10 of Ki" assay_value=-0.28
smiles_entry=CC(=O)N1CCc2cc(C(=O)CCCN3CCC(c4noc5cc(F)ccc45)CC3)sc2C1 readout_kind="log10 of Ki" assay_value=0.18
smiles_entry=CC(=O)N1CCc2c(sc(C)c2CCN2CCC(c3csc4cc(F)ccc34)CC2)C1 readout_kind="log10 of Ki" assay_value=-0.82
smiles_entry=CCc1c(CCN2CCC(c3coc4ccc(C)cc34)CC2)sc2c1CCN(C(C)=O)C2 readout_kind="log10 of Ki" assay_value=0.58
smiles_entry=O=C1CCCc2sc(CCN3CCC(c4noc5cc(F)ccc45)CC3)cc2N1 readout_kind="log10 of Ki" assay_value=-1.19
smiles_entry=CCc1sc2c(c1CCN1CCC(c3noc4cc(F)ccc34)CC1)CCN(C(C)=O)C2 readout_kind="log10 of Ki" assay_value=-1.00
smiles_entry=CCc1c(CCN2CCC(c3noc4cc(F)ccc34)CC2)sc2c1CCN(C(C)=O)C2 readout_kind="log10 of Ki" assay_value=-0.60
smiles_entry=CCc1c(CCN2CCC(c3csc4cc(F)ccc34)CC2)sc2c1CCN(C(C)=O)C2 readout_kind="log10 of Ki" assay_value=-0.68
smiles_entry=CCc1c(CCN2CCC(c3nsc4cc(F)ccc34)CC2)sc2c1CCN(C(C)=O)C2 readout_kind="log10 of Ki" assay_value=-0.77
smiles_entry=CC(=O)N1CCc2c(sc(CCN3CCC(c4noc5cc(F)ccc45)CC3)c2C)C1 readout_kind="log10 of Ki" assay_value=-0.64

# map each compound to its log10 of Ki
1. CC(=O)N1CCc2c(sc(C)c2CCN2CCC(c3noc4cc(F)ccc34)CC2)C1
2. Cc1ccc2occ(C3CCN(CCc4cc5c(s4)CCCC(=O)N5)CC3)c2c1
3. CCc1c(CCN2CCC(c3coc4cc(F)ccc34)CC2)sc2c1CCN(C(C)=O)C2
4. O=C1CCCc2sc(CCN3CCC(c4coc5cc(F)ccc45)CC3)cc2N1

1: -0.34; 2: 0.36; 3: -0.28; 4: -0.40

* * *

Measured Ki (serotonin 1A (5-HT1A) receptor (Rattus norvegicus))
One number for each entry, in nM.

compound="CC(=O)N1CCc2c(sc(CCN3CCC(c4noc5cc(F)ccc45)CC3)c2C)C1 [Example 42]" unit=nM assay_value=1.1
compound="CCc1c(CCN2CCC(c3noc4cc(F)ccc34)CC2)sc2c1CCN(C(C)=O)C2 [Example 73]" unit=nM assay_value=0.16
compound="O=C1CCCc2sc(CCN3CCC(c4noc5cc(F)ccc45)CC3)cc2N1 [Example 15]" unit=nM assay_value=1.6
compound="CCc1c(CCN2CCC(c3coc4cc(F)ccc34)CC2)sc2c1CCN(C(C)=O)C2 [Example 85]" unit=nM assay_value=0.31
compound="CCc1c(CCN2CCC(c3csc4cc(F)ccc34)CC2)sc2c1CCN(C(C)=O)C2 [Example 84]" unit=nM assay_value=0.13

Now look at this one.
Looking up CC(=O)N1CCc2cc(C(=O)CCCN3CCC(c4noc5cc(F)ccc45)CC3)sc2C1 [Example 43] , I see its Ki listed as 87

* * *

Measured pKi (serotonin 2 (5-HT2) receptor (Rattus norvegicus, UniProt P14842))
One number for each entry, as −log10 of the molar value.

Use these answered entries as a reference point.
smiles_entry=CCc1sc2c(c1CCN1CCC(c3noc4cc(F)ccc34)CC1)CCN(C(C)=O)C2 assay_value=10.07
smiles_entry=Cc1ccc2occ(C3CCN(CCc4cc5c(s4)CCCC(=O)N5)CC3)c2c1 assay_value=8.07
smiles_entry=CCc1c(CCN2CCC(c3csc4cc(F)ccc34)CC2)sc2c1CCN(C(C)=O)C2 assay_value=9.74
smiles_entry=CCc1c(CCN2CCC(c3coc4cc(F)ccc34)CC2)sc2c1CCN(C(C)=O)C2 assay_value=9.42
smiles_entry=CCc1c(CCN2CCC(c3nsc4cc(F)ccc34)CC2)sc2c1CCN(C(C)=O)C2 assay_value=10.04

Now look at this one.
Looking up "O=C1CCCc2sc(CCN3CCC(c4noc5cc(F)ccc45)CC3)cc2N1" , I see its pKi listed as 9.49

* * *

Measured Ki (serotonin 2 (5-HT2) receptor (Rattus norvegicus))
Output should be the measured figure followed by the unit it is expressed in.

Use these answered entries as a reference point.
compound="CC(=O)N1CCc2c(sc(C)c2CCN2CCC(c3noc4cc(F)ccc34)CC2)C1 [Example 24]" assay_value="0.062 nM"
compound="CC(=O)N1CCc2c(sc(CCN3CCC(c4noc5cc(F)ccc45)CC3)c2C)C1 [Example 42]" assay_value="0.2 nM"
compound="CCc1c(CCN2CCC(c3coc4ccc(C)cc34)CC2)sc2c1CCN(C(C)=O)C2 [Example 145]" assay_value="2.8 nM"

# map each compound to its Ki
1. O=C1CCCc2sc(CCN3CCC(c4coc5cc(F)ccc45)CC3)cc2N1 [Example 147]
2. CCc1c(CCN2CCC(c3noc4cc(F)ccc34)CC2)sc2c1CCN(C(C)=O)C2 [Example 73]
3. CC(=O)N1CCc2cc(C(=O)CCCN3CCC(c4noc5cc(F)ccc45)CC3)sc2C1 [Example 43]
4. Cc1sc2c(c1CCN1CCC(c3noc4cc(F)ccc34)CC1)NC(=O)CCC2 [Example 22]
5. CC(=O)N1CCc2c(sc(C)c2CCN2CCC(c3csc4cc(F)ccc34)CC2)C1 [Example 53]

1: 0.86 nM; 2: 0.082 nM; 3: 0.11 nM; 4: 0.21 nM; 5: 0.043 nM
